Test system: OVCAR-3
measurementDescription: NCI screen antiproliferative activity, ovarian OVCAR-3
property: GI50

Some compounds with known GI50 results, for comparison:
COc1cc2c3c(n(CCCN4CCOCC4)c(=O)c2cc1OC)-c1cnccc1C3=O.O=C(O)C(F)(F)F [Compound 118] ... 24 µM
COc1cnc2c(c1)C(=O)c1c-2n(CCCN(C)C)c(=O)c2cc(OC)c(OC)cc12.Cl [Compound 55, Hydrochloride] ... 2.9 µM
COc1cc2c3c(n(CCCN4CCOCC4)c(=O)c2cc1OC)-c1ccncc1C3=O.O=C(O)C(F)(F)F [Compound 128] ... 12 µM
COc1cc2c3c(n(CCCN4CCOCC4)c(=O)c2cc1OC)-c1ncccc1C3=O [Compound 22] ... 0.37 µM
COc1cnc2c(c1)C(=O)c1c-2n(CCCN2CCOCC2)c(=O)c2cc(OC)c(OC)cc12.Cl [Compound 56, Hydrochloride] ... 0.31 µM
COc1cnc2c(c1)C(=O)c1c-2n(CCCN2CCOCC2)c(=O)c2ccccc12 [Compound 64] ... 6.3 µM
Cl.O=C1c2cccnc2-c2c1c1ccccc1c(=O)n2CCCN1CCOCC1 [Compound 21, Hydrochloride] ... 28.2 µM

What value of GI50 on OVCAR-3 does COc1cnc2c(c1)C(=O)c1c-2n(CCCN2CCOCC2)c(=O)c2cc([N+](=O)[O-])ccc12 [Compound 66] have?
0.11 µM

---

System: SF-539
measurementDescription: NCI screen antiproliferative activity, CNS SF-539
property: log10(GI50) (log10 of the value in nM)
Give log10 of GI50, with GI50 taken in nM.

COc1cc2c3c(n(CCCN4CCOCC4)c(=O)c2cc1OC)-c1cnccc1C3=O.O=C(O)C(F)(F)F [Compound 118] ... 4.60
COc1cc2c3c(n(CCCNCCO)c(=O)c2cc1OC)-c1ncccc1C3=O.Cl [Compound 31, Hydrochloride] ... 2.41
COc1cnc2c(c1)C(=O)c1c-2n(CCCN2CCOCC2)c(=O)c2ccccc12 [Compound 64] ... 3.54

Returns the measured log10(GI50) for the input compound. Input: CN(C)CCCn1c2c(c3ccc([N+](=O)[O-])cc3c1=O)C(=O)c1cccnc1-2.Cl [Compound 20, Hydrochloride]
3.43

Need log10(GI50), item COc1cnc2c(c1)C(=O)c1c-2n(CCCN(C)C)c(=O)c2cc(OC)c(OC)cc12.Cl [Compound 55, Hydrochloride]
3.04

Look at this compound and give its reported log10(GI50). COc1cc2c3c(n(CCCN(C)C)c(=O)c2cc1OC)-c1ccncc1C3=O.O=C(O)C(F)(F)F [Compound 127]
4.08

---

Tested on: HOP-62
measurementDescription: NCI screen antiproliferative activity, lung HOP-62
Below: a set of entries, each annotated with reported log10 GI50.
Recorded GI50 (log10, µM)

Recorded log10 GI50, per entry:
COc1cc2c3c(n(CCCN(C)C)c(=O)c2cc1OC)-c1ccncc1C3=O.O=C(O)C(F)(F)F ... 0.81
COc1cnc2c(c1)C(=O)c1c-2n(CCCN2CCOCC2)c(=O)c2ccccc12 ... 0.61
COc1cc2c3c(n(CCCN4CCOCC4)c(=O)c2cc1OC)-c1ccncc1C3=O.O=C(O)C(F)(F)F ... 0.70
COc1cc2c3c(n(CCCN4CCOCC4)c(=O)c2cc1OC)-c1ncccc1C3=O ... -0.52

Sample COc1cnc2c(c1)C(=O)c1c-2n(CCCN(C)C)c(=O)c2cc([N+](=O)[O-])ccc12 — what was its log10 GI50?
-1.27

Give the measured log10 GI50 of Cl.O=C1c2cccnc2-c2c1c1ccccc1c(=O)n2CCCN1CCOCC1 [Compound 21, Hydrochloride] .
1.55

Query: log10 GI50; subject: COc1cnc2c(c1)C(=O)c1c-2n(CCCN(C)C)c(=O)c2cc(OC)c(OC)cc12.Cl [Compound 55, Hydrochloride]
-0.04

What does the record list as log10 GI50 for COc1cnc2c(c1)C(=O)c1c-2n(CCCN2CCOCC2)c(=O)c2cc([N+](=O)[O-])ccc12 ?
-1.29

---

compounds and their reported log10 GI50
Tested on: HCT-116
measurementDescription: NCI screen antiproliferative activity, colon HCT-116
In plain terms, each number is the log10 of measured GI50 in nM.

COc1cnc2c(c1)C(=O)c1c-2n(CCCN(C)C)c(=O)c2cc([N+](=O)[O-])ccc12 ... 1.87
COc1cnc2c(c1)C(=O)c1c-2n(CCCN2CCOCC2)c(=O)c2cc([N+](=O)[O-])ccc12 ... 1.70
COc1cnc2c(c1)C(=O)c1c-2n(CCCN(C)C)c(=O)c2cc(OC)c(OC)cc12.Cl [Compound 55, Hydrochloride] ... 3.18
COc1cc2c3c(n(CCCN4CCOCC4)c(=O)c2cc1OC)-c1ccncc1C3=O.O=C(O)C(F)(F)F ... 2.59
CN(C)CCCn1c2c(c3ccc([N+](=O)[O-])cc3c1=O)C(=O)c1cccnc1-2.Cl [Compound 20, Hydrochloride] ... 2.64
COc1cc2c3c(n(CCCNCCO)c(=O)c2cc1OC)-c1ncccc1C3=O.Cl [Compound 31, Hydrochloride] ... 2.18

Field: next compound
Quick check: log10 GI50 of COc1cnc2c(c1)C(=O)c1c-2n(CCCN2CCOCC2)c(=O)c2cc(OC)c(OC)cc12.Cl [Compound 56, Hydrochloride] ?
2.52

---

Tested on: HOP-62
measurementDescription: NCI screen antiproliferative activity, lung HOP-62
statedConditions: Homo sapiens, HOP-62, 48 h, read-out: cytotoxicity (GI50) lung HOP-62, 48 h, sulforhodamine B, single determination; Table 1
Structures can show the parent of a compound that is named as a salt.
property: GI50

See these solved cases before continuing.
CC[C@@]1(O)C(=O)OCc2c1cc1n(c2=O)Cc2cc3ccccc3nc2-1 [Compound 1, camptothecin, reference compound] ... 0.01 µM
CN(C)CCCn1c2c(c3ccccc3c1=O)C(=O)c1ccccc1-2 [Compound 33, reference compound] ... 1.74 µM
COc1cc2c3c(n(CCCN(C)C)c(=O)c2cc1OC)-c1ncccc1C3=O [Compound 19, Hydrochloride] ... 3.39 µM
CN(C)CCCn1c2c(c3ccccc3c1=O)C(=O)c1cccnc1-2 [Compound 18, Hydrochloride] ... 1.51 µM
COc1cc2c3c(n(CCCN(C)C)c(=O)c2cc1OC)-c1ccccc1C3=O [Compound 34, reference compound] ... 11.5 µM

Please turn your attention to the following entry.
Which GI50 reading was recorded for the molecule COc1cc2c3c(n(C)c(=O)c2cc1OC)-c1cc2c(cc1C3=O)OCO2 [Compound 2, reference compound] ?
2.82 µM

---

Tested on: DU-145
measurementDescription: NCI screen antiproliferative activity, prostate DU-145
Overview of recorded GI50 for various compounds
Give the value in µM but do not write µM after it.

Answered examples (4):
O=C1c2cccnc2-c2c1c1ccccc1c(=O)n2CCCn1ccnc1 ... 2.88
CN(C)CCCn1c2c(c3ccc([N+](=O)[O-])cc3c1=O)C(=O)c1cccnc1-2.Cl [Compound 20, Hydrochloride] ... 0.93
COc1cnc2c(c1)C(=O)c1c-2n(CCCN(C)C)c(=O)c2cc([N+](=O)[O-])ccc12 ... 0.051
Cl.O=C1c2cccnc2-c2c1c1ccccc1c(=O)n2CCCNCCO [Compound 30, Hydrochloride] ... 0.41

# get_value(readout='GI50', item= COc1cnc2c(c1)C(=O)c1c-2n(CCCN2CCOCC2)c(=O)c2ccccc12 )
3.6

Bench note: what GI50 did COc1cnc2c(c1)C(=O)c1c-2n(CCCN2CCOCC2)c(=O)c2cc(OC)c(OC)cc12.Cl [Compound 56, Hydrochloride] show?
0.34

Need GI50 of COc1cnc2c(c1)C(=O)c1c-2n(CCCN(C)C)c(=O)c2ccccc12 , thanks.
0.3

Reported GI50, compound COc1cc2c3c(n(CCCN4CCOCC4)c(=O)c2cc1OC)-c1ncccc1C3=O : ____
0.31

Would you kindly share the measured GI50 for COc1cc2c3c(n(CCCN4CCOCC4)c(=O)c2cc1OC)-c1cnccc1C3=O.O=C(O)C(F)(F)F ?
24

---

Consider the following molecules and their measured MGM (mean graph midpoint for growth inhibition) readings.
Test system: approximately 60 different human cancer cell lines
measurementDescription: NCI screen, mean graph midpoint over all cell lines
Format: cell-based
statedConditions: all human cancer cell lines successfully tested; 48 h; Table 2
Where a name gives a salt, the structure may show the parent alone.
Phrase the answer as number then unit, nothing more needed.

These solved cases illustrate the format of a correct answer.
COc1cc2c3c(n(CCCN4CCOCC4)c(=O)c2cc1OC)-c1cnccc1C3=O.O=C(O)C(F)(F)F ... 16 µM
COc1cc2c3c(n(CCCN(C)C)c(=O)c2cc1OC)-c1ncccc1C3=O [Compound 19, Hydrochloride] ... 4.5 µM

Please look at the following molecule next.
Requested field: MGM (mean graph midpoint for growth inhibition). Item: COc1cnc2c(c1)C(=O)c1c-2n(CCCN2CCOCC2)c(=O)c2ccccc12
3.0 µM

These measurements were taken from patent US8686146B2.
